# Target Entity: HDAC2 (Homo sapiens, UniProt Q92769)
# Sequence (Q92769 whole entry): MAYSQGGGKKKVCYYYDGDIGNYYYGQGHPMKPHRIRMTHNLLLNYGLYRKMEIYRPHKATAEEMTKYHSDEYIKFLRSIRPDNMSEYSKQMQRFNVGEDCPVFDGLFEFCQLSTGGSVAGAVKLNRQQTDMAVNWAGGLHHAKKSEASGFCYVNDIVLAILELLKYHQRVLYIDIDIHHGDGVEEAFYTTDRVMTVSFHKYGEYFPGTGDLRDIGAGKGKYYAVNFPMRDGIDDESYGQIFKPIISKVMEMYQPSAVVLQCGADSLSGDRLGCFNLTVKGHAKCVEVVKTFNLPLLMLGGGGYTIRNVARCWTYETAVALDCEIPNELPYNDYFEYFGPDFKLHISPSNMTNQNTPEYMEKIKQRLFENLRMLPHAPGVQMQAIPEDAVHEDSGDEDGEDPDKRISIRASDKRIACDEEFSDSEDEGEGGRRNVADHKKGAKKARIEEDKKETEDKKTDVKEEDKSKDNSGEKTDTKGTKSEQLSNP
# Procedure Text: HDAC enzymatic assay, HDAC2
# Format: biochemical
# Measurement Parameters: Table 2, thio (SH) vs hydroxamate (CONHOH) MBG analogues; read-out: HDAC isoforms, 2 (IC50)
Reported Metric: IC50

O=C1CC[C@H](C(=O)N[C@@H](CCCCCS)C(=O)Nc2ccccc2)N1    0.05 to 0.1 µM
CC(=O)SCCCCC[C@H](NC(=O)[C@H]1CCC(=O)N1)C(=O)Nc1ccccc1    0.05 to 0.1 µM

We next turn to a different molecule, shown below.
Request: Give IC50 for this entry on HDAC2 (Homo sapiens, UniProt Q92769): O=C1NC[C@@H](c2ccccc2)[C@@H]1C(=O)N[C@@H](CCCCCS)C(=O)Nc1ccccc1
Response: < 0.05 µM

---

# Tested on: U937 leukemia cells
# Procedure Text: Cytotoxicity extended panel, U937
# Type: cell-based
# Measurement Parameters: Homo sapiens, U-937, suspension cells, 72 h
Reported Metric: IC50 (µM)
Output spec: scalar in µM, unitless text.

Request: Report IC50 for CC(=O)SCCCCC[C@H](NC(=O)[C@@H]1CCCC(=O)N1)C(=O)Nc1ccccc1
Response: 0.049

---

# Target Entity: HDAC7 (Homo sapiens, UniProt Q8WUI4)
# Sequence (Q8WUI4 whole entry): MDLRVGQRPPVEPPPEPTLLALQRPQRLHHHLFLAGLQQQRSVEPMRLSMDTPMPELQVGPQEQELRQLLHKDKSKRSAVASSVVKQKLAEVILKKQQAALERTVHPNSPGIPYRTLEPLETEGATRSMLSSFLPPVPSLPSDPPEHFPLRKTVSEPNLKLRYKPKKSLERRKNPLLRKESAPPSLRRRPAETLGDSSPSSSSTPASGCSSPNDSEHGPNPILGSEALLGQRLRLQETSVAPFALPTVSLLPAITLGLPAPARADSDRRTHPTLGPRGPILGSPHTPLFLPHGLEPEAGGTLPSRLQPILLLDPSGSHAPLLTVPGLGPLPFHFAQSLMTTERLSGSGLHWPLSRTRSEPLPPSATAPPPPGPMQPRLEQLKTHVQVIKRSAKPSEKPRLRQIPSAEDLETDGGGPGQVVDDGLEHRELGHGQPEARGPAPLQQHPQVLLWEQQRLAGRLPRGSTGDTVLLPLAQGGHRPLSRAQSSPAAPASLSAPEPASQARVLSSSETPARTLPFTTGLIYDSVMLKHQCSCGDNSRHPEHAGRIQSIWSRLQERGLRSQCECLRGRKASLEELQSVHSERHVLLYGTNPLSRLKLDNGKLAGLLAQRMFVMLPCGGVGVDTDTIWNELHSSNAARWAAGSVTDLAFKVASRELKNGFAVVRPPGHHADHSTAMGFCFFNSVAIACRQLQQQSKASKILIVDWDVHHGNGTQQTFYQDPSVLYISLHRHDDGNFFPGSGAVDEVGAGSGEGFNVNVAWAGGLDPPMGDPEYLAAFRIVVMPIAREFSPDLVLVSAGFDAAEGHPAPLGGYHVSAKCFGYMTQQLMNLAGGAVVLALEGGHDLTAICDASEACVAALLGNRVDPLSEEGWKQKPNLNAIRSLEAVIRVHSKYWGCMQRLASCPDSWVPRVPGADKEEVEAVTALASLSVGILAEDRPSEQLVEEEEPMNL
# Procedure Text: HDAC enzymatic assay, HDAC7
# Type: biochemical
# Measurement Parameters: Table 2, thio (SH) vs hydroxamate (CONHOH) MBG analogues; read-out: HDAC isoforms, 7 (IC50)
In this section we review reported IC50 values for a set of compounds.

Request: Report IC50 for O=C1CC[C@H](C(=O)N[C@@H](CCCCCS)C(=O)Nc2ccccc2)N1 [Example 33]
Response: < 50 nM

Request: Report IC50 for O=C1NC[C@@H](c2ccccc2)[C@@H]1C(=O)N[C@@H](CCCCCS)C(=O)Nc1ccccc1 [Example 31]
Response: < 50 nM

Request: Report IC50 for CC(=O)SCCCCC[C@H](NC(=O)[C@H]1CCC(=O)N1)C(=O)Nc1ccccc1 [Example 21]
Response: < 50 nM

---

In this section we review reported IC50 values for a set of compounds.
# Target Entity: HDAC11 (Homo sapiens, UniProt Q96DB2)
# Sequence (Q96DB2 whole entry): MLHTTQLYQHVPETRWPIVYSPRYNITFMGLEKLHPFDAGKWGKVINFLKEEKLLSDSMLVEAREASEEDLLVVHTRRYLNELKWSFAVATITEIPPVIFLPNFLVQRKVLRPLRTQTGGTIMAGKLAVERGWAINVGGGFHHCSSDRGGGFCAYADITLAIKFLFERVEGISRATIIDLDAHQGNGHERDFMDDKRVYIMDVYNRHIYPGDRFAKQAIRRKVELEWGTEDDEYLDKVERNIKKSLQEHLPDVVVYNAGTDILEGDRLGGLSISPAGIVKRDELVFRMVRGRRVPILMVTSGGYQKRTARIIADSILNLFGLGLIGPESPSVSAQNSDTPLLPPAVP
# Procedure Text: HDAC enzymatic assay, HDAC11
# Assay type: biochemical
# Measurement Parameters: Table 2, thio (SH) vs hydroxamate (CONHOH) MBG analogues; read-out: HDAC isoforms, 11 (IC50)

Solved entries:
O=C1NC[C@@H](c2ccccc2)[C@@H]1C(=O)N[C@@H](CCCCCS)C(=O)Nc1ccccc1 [Example 31]    < 50 nM
CC(=O)SCCCCC[C@H](NC(=O)[C@H]1CCC(=O)N1)C(=O)Nc1ccccc1 [Example 21]    < 50 nM

We next turn to a different compound, shown below.
Request: Report IC50 for O=C1CC[C@H](C(=O)N[C@@H](CCCCCS)C(=O)Nc2ccccc2)N1 [Example 33]
Response: < 50 nM

---

In this section we review reported IC50 values for a set of compounds.
# Target Entity: UniProt:Q96DB2
# Procedure Text: HDAC enzymatic assay, HDAC11
# Assay type: biochemical
# Measurement Parameters: fluorogenic tetrapeptide RHKKAc substrate 10 μM; read-out: HDAC isoforms IC50 (nM), 11
# Protocol: Each compound was dissolved in DMSO, and progressively diluted solutions were used for testing. […] Upon its deacetylation, the fluorophore was released given rise to fluorescence emission which was detected by a fluorimeter, and the IC50 values of the compounds were determined by analyzing dose-response inhibition curves.

O=C1NC[C@H](c2ccccc2)[C@@H]1C(=O)N[C@@H](CCCCCS)C(=O)Nc1ccccc1 [Example 28]    < 50 nM
O=C1CCC[C@@H](C(=O)N[C@@H](CCCCCS)C(=O)NC2CCCC2)N1 [Example 24]    50 to 100 nM
O=C1CCC[C@H](C(=O)N[C@@H](CCCCCS)C(=O)Nc2ccccc2)N1 [Example 37]    < 50 nM
O=C1NCCC[C@@H]1C(=O)N[C@@H](CCCCCS)C(=O)Nc1ccccc1 [Example 36]    < 50 nM
O=C1NCCC[C@H]1C(=O)N[C@@H](CCCCCS)C(=O)Nc1ccccc1 [Example 35]    < 50 nM
O=C1NC[C@H](c2ccccc2)[C@H]1C(=O)N[C@@H](CCCCCS)C(=O)Nc1ccccc1 [Example 30]    < 50 nM
Cc1cccc(CCNC(=O)[C@H](CCCCCS)NC(=O)[C@@H]2CCCC(=O)N2)c1 [Example 34]    50 to 100 nM
O=C1CCC[C@@H](C(=O)N[C@@H](CCCCCS)C(=O)NCc2cccc(OCc3ccccc3)c2)N1 [Example 25]    100 to 500 nM

Request: Report IC50 for O=C1C[C@@H](C(=O)N[C@@H](CCCCCS)C(=O)Nc2ccccc2)N1 [Example 27]
Response: < 50 nM

Request: Report IC50 for O=C1CCC[C@@H](C(=O)N[C@@H](CCCCCS)C(=O)NCc2ccc(C(F)(F)F)cc2)N1 [Example 26]
Response: 100 to 500 nM

Request: Report IC50 for O=C1NC[C@@H](c2ccccc2)[C@@H]1C(=O)N[C@@H](CCCCCS)C(=O)Nc1ccccc1 [Example 31]
Response: < 50 nM

Request: Report IC50 for O=C1CC[C@H](C(=O)N[C@@H](CCCCCS)C(=O)Nc2ccccc2)N1 [Example 33]
Response: < 50 nM

Request: Report IC50 for Cc1cccc(NC(=O)[C@H](CCCCCS)NC(=O)[C@@H]2CCCC(=O)N2)c1 [Example 38]
Response: < 50 nM

Request: Report IC50 for CN1C(=O)CCC[C@H]1C(=O)N[C@@H](CCCCCS)C(=O)Nc1ccccc1 [Example 40]
Response: < 50 nM

---

# Target Entity: HDAC10 (Homo sapiens)
# Sequence (Q969S8 whole entry): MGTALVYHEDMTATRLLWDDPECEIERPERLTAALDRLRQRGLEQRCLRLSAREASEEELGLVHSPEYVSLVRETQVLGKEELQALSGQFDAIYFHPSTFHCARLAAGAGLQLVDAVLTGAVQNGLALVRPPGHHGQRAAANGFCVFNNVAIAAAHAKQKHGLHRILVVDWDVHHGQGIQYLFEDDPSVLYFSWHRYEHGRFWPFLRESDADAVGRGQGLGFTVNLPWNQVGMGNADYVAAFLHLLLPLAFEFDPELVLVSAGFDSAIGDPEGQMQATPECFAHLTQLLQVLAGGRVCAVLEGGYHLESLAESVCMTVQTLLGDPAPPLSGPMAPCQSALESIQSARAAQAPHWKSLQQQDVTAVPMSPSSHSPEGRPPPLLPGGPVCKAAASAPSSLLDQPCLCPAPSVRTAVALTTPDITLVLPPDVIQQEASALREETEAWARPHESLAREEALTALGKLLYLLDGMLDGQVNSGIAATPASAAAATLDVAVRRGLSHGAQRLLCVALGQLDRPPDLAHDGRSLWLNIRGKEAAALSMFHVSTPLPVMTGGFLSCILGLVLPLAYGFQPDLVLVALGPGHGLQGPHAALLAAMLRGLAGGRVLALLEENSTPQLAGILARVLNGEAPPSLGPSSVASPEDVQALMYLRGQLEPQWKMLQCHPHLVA
# Procedure Text: HDAC enzymatic assay, HDAC10
# Assay type: biochemical
# Measurement Parameters: fluorogenic tetrapeptide RHKKAc substrate 10 μM; read-out: HDAC isoforms IC50 (nM), 10
In this section we review reported IC50 values for a set of compounds.

Cc1ccc(NC(=O)[C@H](CCCCCS)NC(=O)[C@@H]2CCCC(=O)N2)cc1    < 50 nM
CN1C(=O)CCC[C@H]1C(=O)N[C@@H](CCCCCS)C(=O)Nc1ccccc1    < 50 nM
O=C1CCC[C@@H](C(=O)N[C@@H](CCCCCS)C(=O)NCc2ccc(C(F)(F)F)cc2)N1    100 to 500 nM

Request: Report IC50 for O=C1CCC[C@@H](C(=O)N[C@@H](CCCCCS)C(=O)NCc2cccc(OCc3ccccc3)c2)N1
Response: 100 to 500 nM

Request: Report IC50 for O=C1CCC[C@@H](C(=O)N[C@@H](CCCCCS)C(=O)N2CCc3ccccc3C2)N1
Response: 100 to 500 nM

Request: Report IC50 for O=C1NC[C@@H](c2ccccc2)[C@@H]1C(=O)N[C@@H](CCCCCS)C(=O)Nc1ccccc1
Response: < 50 nM

---

In this section we review reported IC50 values for a set of compounds.
# Target Entity: HDAC9 (Homo sapiens, UniProt Q9UKV0)
# Sequence (Q9UKV0 whole entry): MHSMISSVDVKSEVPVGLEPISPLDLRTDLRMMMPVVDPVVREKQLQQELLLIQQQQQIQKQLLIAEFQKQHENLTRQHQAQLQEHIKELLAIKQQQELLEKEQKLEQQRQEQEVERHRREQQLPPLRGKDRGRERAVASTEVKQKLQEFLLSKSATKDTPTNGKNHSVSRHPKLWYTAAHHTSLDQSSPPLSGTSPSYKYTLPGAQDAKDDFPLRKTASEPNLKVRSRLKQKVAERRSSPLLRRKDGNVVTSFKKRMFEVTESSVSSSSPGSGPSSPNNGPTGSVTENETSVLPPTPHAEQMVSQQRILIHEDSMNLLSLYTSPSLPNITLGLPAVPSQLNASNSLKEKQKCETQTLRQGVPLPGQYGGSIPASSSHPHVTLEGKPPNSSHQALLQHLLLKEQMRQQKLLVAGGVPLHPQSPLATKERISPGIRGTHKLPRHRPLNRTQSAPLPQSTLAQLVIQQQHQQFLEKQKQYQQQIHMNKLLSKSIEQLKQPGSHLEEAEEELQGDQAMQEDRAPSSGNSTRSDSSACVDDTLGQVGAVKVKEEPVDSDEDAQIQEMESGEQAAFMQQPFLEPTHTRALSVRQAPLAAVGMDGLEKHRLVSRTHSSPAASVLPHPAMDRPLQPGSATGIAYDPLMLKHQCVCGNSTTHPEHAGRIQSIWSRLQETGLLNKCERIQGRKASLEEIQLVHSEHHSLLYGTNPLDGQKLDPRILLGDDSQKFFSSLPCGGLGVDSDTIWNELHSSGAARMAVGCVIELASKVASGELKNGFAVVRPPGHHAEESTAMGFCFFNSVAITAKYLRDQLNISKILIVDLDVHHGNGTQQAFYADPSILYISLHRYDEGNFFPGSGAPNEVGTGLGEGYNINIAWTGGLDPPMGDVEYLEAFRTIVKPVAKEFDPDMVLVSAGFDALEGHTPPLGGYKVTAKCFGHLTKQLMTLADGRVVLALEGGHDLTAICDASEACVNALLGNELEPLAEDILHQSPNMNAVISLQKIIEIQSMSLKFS
# Procedure Text: HDAC enzymatic assay, HDAC9
# Format: biochemical
# Measurement Parameters: fluorogenic tetrapeptide RHKKAc substrate 10 μM; read-out: HDAC isoforms IC50 (nM), 9

O=C1C[C@@H](C(=O)N[C@@H](CCCCCS)C(=O)Nc2ccccc2)N1 [Example 27]    < 50 nM

Request: Report IC50 for O=C1NC[C@H](c2ccccc2)[C@H]1C(=O)N[C@@H](CCCCCS)C(=O)Nc1ccccc1 [Example 30]
Response: 50 to 100 nM

Request: Report IC50 for O=C1CC[C@H](C(=O)N[C@@H](CCCCCS)C(=O)Nc2ccccc2)N1 [Example 33]
Response: < 50 nM

Request: Report IC50 for O=C1NC[C@H](c2ccccc2)[C@@H]1C(=O)N[C@@H](CCCCCS)C(=O)Nc1ccccc1 [Example 28]
Response: < 50 nM

Request: Report IC50 for O=C1CCC[C@@H](C(=O)N[C@@H](CCCCCS)C(=O)NC2CCCC2)N1 [Example 24]
Response: < 50 nM

---

In this section we review reported IC50 values for a set of molecules.
# Target Entity: HDAC8 (Homo sapiens)
# Sequence (Q9BY41 whole entry): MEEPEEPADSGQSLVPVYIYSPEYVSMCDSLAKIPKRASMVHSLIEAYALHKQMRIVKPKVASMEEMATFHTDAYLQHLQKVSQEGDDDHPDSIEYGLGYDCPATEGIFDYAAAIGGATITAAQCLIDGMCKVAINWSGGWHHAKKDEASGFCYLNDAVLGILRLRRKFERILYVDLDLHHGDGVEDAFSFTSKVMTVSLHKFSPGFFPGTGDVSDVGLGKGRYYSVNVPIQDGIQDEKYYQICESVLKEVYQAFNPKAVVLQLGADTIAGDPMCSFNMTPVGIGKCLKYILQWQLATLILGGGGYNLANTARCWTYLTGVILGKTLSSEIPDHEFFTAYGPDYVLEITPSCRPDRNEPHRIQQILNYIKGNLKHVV
# Procedure Text: HDAC enzymatic assay, HDAC8
# Type: biochemical
# Measurement Parameters: Table 2, thio (SH) vs hydroxamate (CONHOH) MBG analogues; read-out: HDAC isoforms, 8 (IC50)

Solved entries:
O=C1CC[C@H](C(=O)N[C@@H](CCCCCS)C(=O)Nc2ccccc2)N1    100 to 500 nM
CC(=O)SCCCCC[C@H](NC(=O)[C@H]1CCC(=O)N1)C(=O)Nc1ccccc1    100 to 500 nM

We next turn to a different molecule, shown below.
Request: Give IC50 for this entry on HDAC8 (Homo sapiens): O=C1NC[C@@H](c2ccccc2)[C@@H]1C(=O)N[C@@H](CCCCCS)C(=O)Nc1ccccc1
Response: < 50 nM
